test: Metabolic stability of the compound in dog liver microsomes assessed as compound remaining at 3 uM after 30 mins; type: ADME, Canis lupus familiaris, Microsome; settings: read-out: Stability
property-measured: remaining at 0.5 h, 3 µM (%)

>>> result_value("N[C@H]1CC[C@H](Nc2ncc3nc(Nc4ccc(F)cc4F)n(C4CCCC4)c3n2)CC1")
100

----------
test: Half life in rat at 10 mg/kg, iv infusion; type: ADME, organism-based; set-up: dose 10 mg/kg, route intravenous; settings: in vivo
property-measured: half-life (min)

>>> result_value("N[C@H]1CC[C@H](Nc2ncc3nc(Nc4ccc(F)cc4F)n(C4CCCC4)c3n2)CC1")
600

----------
target: Mitogen-activated protein kinase 14 (Homo sapiens, UniProt Q16539); experiment: Inhibition of p38alpha using MBP and [gamma33P]ATP as substrate after 60 mins by scintillation counting
Sequence (Q16539 whole entry): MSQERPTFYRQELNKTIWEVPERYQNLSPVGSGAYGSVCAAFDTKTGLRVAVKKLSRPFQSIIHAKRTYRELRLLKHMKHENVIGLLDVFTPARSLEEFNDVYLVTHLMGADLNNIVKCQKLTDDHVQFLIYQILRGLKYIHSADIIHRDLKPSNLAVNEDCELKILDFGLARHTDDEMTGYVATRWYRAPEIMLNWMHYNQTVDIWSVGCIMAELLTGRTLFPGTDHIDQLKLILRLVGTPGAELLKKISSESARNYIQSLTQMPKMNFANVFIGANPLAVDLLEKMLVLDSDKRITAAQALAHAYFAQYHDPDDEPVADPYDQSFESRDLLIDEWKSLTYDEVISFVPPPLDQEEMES
pIC50: −log10 of the molar value.
property-measured: pIC50

>>> result_value("N[C@H]1CC[C@H](Nc2ncc3nc(Nc4ccc(F)cc4F)n(C4CCCC4)c3n2)CC1")
6.66
>>> result_value("COc1ccc(Nc2ncc3nc(Nc4ccccc4F)n([C@H]4CC[C@H](N)CC4)c3n2)cc1")
6.68
>>> result_value("COc1ccc(Nc2ncc3nc(Nc4ccccc4F)n(C4CCOCC4)c3n2)cc1")
5.55
>>> result_value("COc1ccc(Nc2ncc3nc(Nc4ccccc4F)n([C@H]4CC[C@@H](O)CC4)c3n2)cc1")
5.80
>>> result_value("COc1ccc(Nc2ncc3nc(Nc4ccccc4F)n(C(C)C)c3n2)cc1")
5.68
>>> result_value("O[C@H]1CC[C@H](Nc2ncc3nc(Nc4ccccc4F)n(C4CCCC4)c3n2)CC1")
6.29
>>> result_value("COc1ccc(Nc2ncc3nc(Nc4ccc(F)cc4F)n(C4CCCC4)c3n2)cc1")
5.89
>>> result_value("CCNc1ncc2nc(Nc3ccccc3F)n(C3CCCC3)c2n1")
5.59

----------
target: CYP2B6 (Homo sapiens); assay: Drug metabolism assessed as CYP2B6-mediated compound loss after 30 mins; type: ADME; settings: recombinant enzyme; read-out: Drug metabolism
Sequence (P20813 whole entry): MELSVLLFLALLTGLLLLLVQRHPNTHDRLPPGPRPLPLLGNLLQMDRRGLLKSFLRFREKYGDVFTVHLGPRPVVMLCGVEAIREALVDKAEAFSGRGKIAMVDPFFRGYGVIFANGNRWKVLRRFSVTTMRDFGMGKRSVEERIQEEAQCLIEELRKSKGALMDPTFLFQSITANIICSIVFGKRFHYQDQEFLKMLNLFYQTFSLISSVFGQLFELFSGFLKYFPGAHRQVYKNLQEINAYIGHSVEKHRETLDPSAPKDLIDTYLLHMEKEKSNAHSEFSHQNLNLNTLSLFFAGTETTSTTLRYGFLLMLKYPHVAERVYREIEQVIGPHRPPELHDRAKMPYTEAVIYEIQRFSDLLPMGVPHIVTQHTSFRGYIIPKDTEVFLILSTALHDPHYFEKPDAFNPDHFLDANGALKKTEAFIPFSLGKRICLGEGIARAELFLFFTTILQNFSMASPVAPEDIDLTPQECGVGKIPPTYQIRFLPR
property-measured: metabolised at 0.5 h (%)

>>> result_value("N[C@H]1CC[C@H](Nc2ncc3nc(Nc4ccc(F)cc4F)n(C4CCCC4)c3n2)CC1")
14

----------
Below, each entry is listed with its recorded pIC50.
target: Mitogen-activated protein kinase 9 (Homo sapiens); experiment: Inhibition of full length Hexa-His-tagged JNK2 using GST-tagged cJun and [gamma33P]ATP as substrate after 60 mins by scintillation counting
pIC50: −log10 of the molar value.
property-measured: pIC50

>>> result_value("O[C@H]1CC[C@H](Nc2ncc3nc(Nc4ccccc4F)n(C4CCCC4)c3n2)CC1")
8.00
>>> result_value("CNc1ncc2nc(Nc3ccccc3F)n(C3CCCC3)c2n1")
6.44
>>> result_value("CCn1c(Nc2ccccc2F)nc2cnc(Nc3ccc(OC)cc3)nc21")
6.37
>>> result_value("COc1ccc(Nc2ncc3nc(Nc4ccccc4)n(C4CCCC4)c3n2)cc1")
6.10

----------
Below, each entry is listed with its recorded pIC50.
biological target: Mitogen-activated protein kinase 10 (Homo sapiens); test: Inhibition of full length Hexa-His-tagged JNK3 using GST-tagged cJun and [gamma33P]ATP as substrate after 60 mins by scintillation counting
pIC50: −log10 of the molar value.
property-measured: pIC50

>>> result_value("COc1ccc(Nc2ncc3nc(Nc4ccccc4)n(C4CCCC4)c3n2)cc1")
"< 6.00"
>>> result_value("COc1ccc(Nc2ncc3nc(Nc4ccccc4F)n(-c4ccccc4)c3n2)cc1")
"< 6.52"
>>> result_value("COc1ccc(Nc2ncc3nc(Nc4ccccc4Cl)n(C4CCCC4)c3n2)cc1")
"< 5.00"

----------
target: Mitogen-activated protein kinase 10 (Homo sapiens, UniProt P53779); test: Inhibition of full length Hexa-His-tagged JNK3 using GST-tagged cJun and [gamma33P]ATP as substrate after 60 mins by scintillation counting
Sequence (P53779 whole entry): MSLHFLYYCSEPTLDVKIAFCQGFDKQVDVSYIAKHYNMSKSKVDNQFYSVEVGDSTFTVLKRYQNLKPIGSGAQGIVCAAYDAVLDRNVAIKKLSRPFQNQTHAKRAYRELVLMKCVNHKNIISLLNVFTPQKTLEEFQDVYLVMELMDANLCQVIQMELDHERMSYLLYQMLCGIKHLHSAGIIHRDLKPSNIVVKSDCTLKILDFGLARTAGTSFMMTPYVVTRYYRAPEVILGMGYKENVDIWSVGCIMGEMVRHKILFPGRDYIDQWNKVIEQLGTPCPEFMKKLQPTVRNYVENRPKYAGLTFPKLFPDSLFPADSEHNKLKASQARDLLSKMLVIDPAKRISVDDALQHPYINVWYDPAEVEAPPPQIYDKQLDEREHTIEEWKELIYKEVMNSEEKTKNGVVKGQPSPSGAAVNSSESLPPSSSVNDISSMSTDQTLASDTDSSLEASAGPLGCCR
property-measured: IC50 (µM)

>>> result_value("COc1ccc(Nc2ncc3nc(Nc4ccccc4F)n([C@H]4CC[C@@H](O)CC4)c3n2)cc1")
0.017
>>> result_value("COc1ccc(Nc2ncc3nc(Nc4ccccc4F)n(C(C)C)c3n2)cc1")
0.096
>>> result_value("Fc1ccccc1Nc1nc2cnc(NC3CCCCC3)nc2n1C1CCCC1")
0.05
>>> result_value("CNc1ncc2nc(Nc3ccccc3F)n(C3CCCC3)c2n1")
0.68

----------
target: Mitogen-activated protein kinase 9 (Homo sapiens); test: Inhibition of full length Hexa-His-tagged JNK2 using GST-tagged cJun and [gamma33P]ATP as substrate after 60 mins by scintillation counting
pIC50: −log10 of the molar value.
The label depends only on pIC50: Y if it is at least 7, N if it is smaller.

>>> class_assignment("COc1ccc(Nc2ncc3nc(Nc4ccccc4F)n([C@H]4CC[C@@H](C(N)=O)CC4)c3n2)cc1")
"Y"
>>> class_assignment("N[C@H]1CC[C@H](Nc2ncc3nc(Nc4ccc(F)cc4F)n(C4CCCC4)c3n2)CC1")
"Y"
>>> class_assignment("COc1ccc(Nc2ncc3nc(Nc4ccccc4F)n([C@H]4CC[C@H](N)CC4)c3n2)cc1")
"N"
>>> class_assignment("N[C@H]1CC[C@H](Nc2ncc3nc(Nc4c(F)cc(F)cc4F)n(C4CCCC4)c3n2)CC1")
"Y"
>>> class_assignment("COc1ccc(Nc2ncc3nc(Nc4ccccc4F)n(C4CCOCC4)c3n2)cc1")
"Y"

----------
biological target: Mitogen-activated protein kinase 8 (Homo sapiens, UniProt P45983); assay: Inhibition of full length Hexa-His-tagged JNK1 using GST-tagged cJun and [gamma33P]ATP as substrate after 60 mins by scintillation counting
Sequence (P45983 whole entry): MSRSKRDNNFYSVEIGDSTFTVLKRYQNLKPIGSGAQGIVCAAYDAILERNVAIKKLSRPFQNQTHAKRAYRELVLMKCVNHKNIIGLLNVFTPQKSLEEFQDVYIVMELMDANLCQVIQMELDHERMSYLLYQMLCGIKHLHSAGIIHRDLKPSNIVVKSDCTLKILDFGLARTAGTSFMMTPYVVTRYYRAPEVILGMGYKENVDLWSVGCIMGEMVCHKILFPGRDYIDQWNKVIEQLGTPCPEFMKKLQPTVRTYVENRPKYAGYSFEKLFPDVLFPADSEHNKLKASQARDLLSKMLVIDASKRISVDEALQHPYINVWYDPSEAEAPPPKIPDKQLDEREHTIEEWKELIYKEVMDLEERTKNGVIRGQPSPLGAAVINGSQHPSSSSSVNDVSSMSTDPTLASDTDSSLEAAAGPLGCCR
pIC50: −log10 of the molar value.
property-measured: pIC50

>>> result_value("COc1ccc(Nc2ncc3nc(Nc4ccccc4)n(C4CCCC4)c3n2)cc1")
"< 5.00"
>>> result_value("COc1ccc(Nc2ncc3nc(Nc4ccccc4F)n(-c4ccccc4)c3n2)cc1")
"< 5.00"
>>> result_value("COc1ccc(Nc2ncc3nc(Nc4ccccc4Cl)n(C4CCCC4)c3n2)cc1")
"< 5.00"

----------
Below, each entry is listed with its recorded pIC50.
biological target: Mitogen-activated protein kinase 9 (Homo sapiens, UniProt P45984); assay: Inhibition of full length Hexa-His-tagged JNK2 using GST-tagged cJun and [gamma33P]ATP as substrate after 60 mins by scintillation counting
Sequence (P45984 whole entry): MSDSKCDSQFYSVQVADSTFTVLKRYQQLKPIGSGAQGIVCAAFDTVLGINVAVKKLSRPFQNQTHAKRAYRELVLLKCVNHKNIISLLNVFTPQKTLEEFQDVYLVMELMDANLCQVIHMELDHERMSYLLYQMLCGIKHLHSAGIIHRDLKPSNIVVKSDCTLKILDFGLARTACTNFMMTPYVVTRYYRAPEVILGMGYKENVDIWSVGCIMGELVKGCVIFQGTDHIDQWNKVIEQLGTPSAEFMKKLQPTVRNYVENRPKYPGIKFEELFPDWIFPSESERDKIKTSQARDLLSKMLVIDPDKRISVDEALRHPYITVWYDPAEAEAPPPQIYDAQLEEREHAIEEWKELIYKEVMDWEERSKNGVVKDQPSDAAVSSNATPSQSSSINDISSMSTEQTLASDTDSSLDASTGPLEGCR
pIC50: −log10 of the molar value.
property-measured: pIC50

>>> result_value("COc1ccc(Nc2ncc3nc(Nc4ccc(F)cc4F)n(C4CCCC4)c3n2)cc1")
6.89
>>> result_value("COc1ccc(Nc2ncc3nc(Nc4ccccc4F)n(C(C)C)c3n2)cc1")
7.08
>>> result_value("COc1ccc(Nc2ncc3nc(Nc4ccccc4F)n(C4CCCCC4)c3n2)cc1")
6.85

These entries and their values trace back to ChEMBL document CHEMBL1944604.
